Origin of the recorded values: patent US20230303680A1

# Assay system: T1, human interleukin-2 (recombinant human IL-2, teceleukin) (human, UniProt P60568 21-153)
# T1 construct: also called hIL-2; rhIL-2
# T1 sequence (P60568 21-153 limits assumed): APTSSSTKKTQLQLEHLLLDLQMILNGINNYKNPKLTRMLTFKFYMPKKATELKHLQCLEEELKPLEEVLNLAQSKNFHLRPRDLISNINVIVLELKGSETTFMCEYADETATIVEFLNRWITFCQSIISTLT
# Assay text: single-cycle surface plasmon resonance (SPR)
Endpoint name: Kd (nM)
The response must be a number in nM with no trailing unit.

Recorded Kd, per entry:
{"Binder": "4 + 10 (antibody, V domains shown, UFKA-20 variant; also called UFKA-20 variant 4+10; vH chain 4, vL chain 10; copies: 2 + 2) VH: EVMLVESGGGLVKPGGSLKLSCAASGFSFSNYAMSWVRQTPERRLEWVALISGGGRYSYYPDSLKGRFTISRDSARNSLYLQMSSLRSEDTAMYYCARHMGHNDYLAWFAYWGQGTLVTVSS VL: DIVMTQSPSSLAVSVGQKVTMSCKSSQSLLNVSNQRNYLAWYQQKPGQSPKLLIYFASTRESGVPDRFIGSGSGTDFTLNISSVQAEDLADYFCQQYYSCPPWTFGGGTKLEIKR", "Kd (nM)": 33.6}
{"Binder": "4 + 9 (antibody, V domains shown, UFKA-20 variant; also called UFKA-20 variant 4+9; vH chain 4, vL chain 9; copies: 2 + 2) VH: EVMLVESGGGLVKPGGSLKLSCAASGFSFSNYAMSWVRQTPERRLEWVALISGGGRYSYYPDSLKGRFTISRDSARNSLYLQMSSLRSEDTAMYYCARHMGHNDYLAWFAYWGQGTLVTVSS VL: DIVMTQSPSSLAVSVGQKVTMSCKSSQSLLNSANQRNYLAWYQQKPGQSPKLLIYWASTRESGVPDRFIGSGSGTDFTLNISSVQAEDLADYFCQQYYSAPPWTFGGGTKLEIKR", "Kd (nM)": 1.02}
{"Binder": "103 + 9 (antibody, V domains shown, UFKA-20 variant; copies: 2 + 2) VH: EVMLVESGGGLVKPGGSLKLSCAASGFSFSNYAMSWVRQTPERRLEWVALISGGGSYSYYPDSLKGRFTISRDSARNSLYLQMSSLRSEDTAMYYCARHMGYADYLAWFAYWGQGTLVTVSS VL: DIVMTQSPSSLAVSVGQKVTMSCKSSQSLLNSANQRNYLAWYQQKPGQSPKLLIYWASTRESGVPDRFIGSGSGTDFTLNISSVQAEDLADYFCQQYYSAPPWTFGGGTKLEIKR", "Kd (nM)": 2.7}

Consider the record given below.
Please look up its Kd: 105 + 9 (antibody, V domains shown, UFKA-20 variant; also called UFKA-20 variant 105+9; vH chain 105, vL chain 9; copies: 2 + 2) VH: EVMLVESGGGLVKPGGSLKLSCAASGFSFSNYAMSWVRQTPERRLEWVALISGGGSYSYYPDSLKGRFTISRDSARNSLYLQMSSLRSEDTAMYYCARHMGYNDALAWFAYWGQGTLVTVSS VL: DIVMTQSPSSLAVSVGQKVTMSCKSSQSLLNSANQRNYLAWYQQKPGQSPKLLIYWASTRESGVPDRFIGSGSGTDFTLNISSVQAEDLADYFCQQYYSAPPWTFGGGTKLEIKR
0.271
